The values you see were collected from ChEMBL document CHEMBL1150005.

target: Neurotensin receptor type 1 (Mus musculus, UniProt O88319); test: Binding affinity for Neurotensin Receptor
Sequence (O88319 whole entry): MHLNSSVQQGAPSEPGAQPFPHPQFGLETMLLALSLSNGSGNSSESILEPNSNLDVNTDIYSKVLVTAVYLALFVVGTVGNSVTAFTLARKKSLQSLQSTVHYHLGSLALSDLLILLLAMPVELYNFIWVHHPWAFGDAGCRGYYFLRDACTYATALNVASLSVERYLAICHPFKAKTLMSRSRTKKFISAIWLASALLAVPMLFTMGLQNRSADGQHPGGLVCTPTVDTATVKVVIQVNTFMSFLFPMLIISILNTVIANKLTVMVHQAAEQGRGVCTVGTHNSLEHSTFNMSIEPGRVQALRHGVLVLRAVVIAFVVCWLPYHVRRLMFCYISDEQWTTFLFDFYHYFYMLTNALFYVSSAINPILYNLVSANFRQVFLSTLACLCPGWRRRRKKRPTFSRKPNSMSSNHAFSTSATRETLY
pKi: −log10 of the molar value. Numbered stars: 1 amine (or outer) side, 2 acyl side, 3 side chain; on linkers, the order of the positions; unused ones are H or OH. Square brackets hold non-standard residues; d marks the D form. Peptide text beside a SMILES is read from it. * marks the point of attachment. X3 = NCCCC[C@@H](C(=O)[*:2])N(C[C@@H](N)CCCN=C(N)N)[*:1]; X1 = NCCCC[C@H](N)CN([C@@H](CCCCN)C(=O)[*:2])[*:1]; X2 = NCCCCCCN([C@@H](CCCCN)C(=O)[*:2])[*:1]; X6 = N=C(N)NCCCC(CCCNC(=N)N)C(=O)*; Tle = CC(C)(C)[C@H](N)C(=O)O; X4 = NCCCCC(CCCCN)C(=O)*
Yes means recorded pKi is 8 or above; No means it is below 8.

Check out these entries, answers already filled in.
{"columns": ["Compound", "Class"],
 "data": [
  ["CC[C@H](C)[C@H](NC(=O)[C@H](Cc1ccc(O)cc1)NC(=O)[C@@H]1CCCN1C(=O)[C@H](CCCCN)NC[C@@H](N)CCCCN)C(=O)N[C@@H](CC(C)C)C(=O)O (H-[X1]PYIL-OH)", "Yes"],
  ["CC(C)C[C@H](NC(=O)[C@@H](NC(=O)[C@H](Cc1c[nH]c2ccccc12)NC(=O)[C@@H]1CCCN1C(=O)[C@H](CCCCN)NC[C@@H](N)CCCCN)C(C)(C)C)C(=O)O (H-[X1]PW[Tle]L-OH)", "Yes"],
  ["CC(C)C[C@H](NC(=O)[C@@H](NC(=O)[C@H](Cc1c[nH]c2ccccc12)NC(=O)[C@@H]1CCCN1C(=O)[C@@H](N)CCCCN)C(C)(C)C)C(=O)O (H-KPW[Tle]L-OH)", "No"],
  ["CCOC(=O)[C@H](CC(C)C)NC(=O)[C@@H](NC(=O)[C@H](Cc1c[nH]c2ccccc12)NC(=O)[C@@H]1CCCN1C(=O)[C@H](CCCCN)NCCCCCCN)C(C)(C)C (H-[X2]PW[Tle]L-OEt)", "No"],
  ["CC[C@H](C)[C@H](NC(=O)[C@H](Cc1c[nH]c2ccccc12)NC(=O)[C@@H]1CCCN1C(=O)[C@H](CCCCN)NC[C@@H](N)CCCCN)C(=O)N[C@@H](CC(C)C)C(=O)O (H-[X1]PWIL-OH)", "Yes"],
  ["CCOC(=O)[C@H](CC(C)C)NC(=O)[C@@H](NC(=O)[C@H](Cc1c[nH]c2ccccc12)NC(=O)[C@@H]1CCCN1C(=O)[C@H](CCCCN)NC[C@@H](N)CCCCN)C(C)(C)C (H-[X1]PW[Tle]L-OEt)", "No"]
]}

Q: In plain terms: is recorded pKi at least 8 for CC(C)C[C@H](NC(=O)[C@@H](NC(=O)[C@H](Cc1ccc(O)cc1)NC(=O)[C@@H]1CCCN1C(=O)[C@H](CCCCN)NC[C@@H](N)CCCCN)C(C)(C)C)C(=O)O (H-[X1]PY[Tle]L-OH) ?
A: Yes

Q: In plain terms: is recorded pKi at least 8 for CC(C)C[C@H](NC(=O)[C@@H](NC(=O)[C@H](Cc1c[nH]c2ccccc12)NC(=O)[C@@H]1CCCN1C(=O)C(CCCCN)CCCCN)C(C)(C)C)C(=O)O (X4-PW[Tle]L-OH) ?
A: Yes

Q: In plain terms: is recorded pKi at least 8 for CCOC(=O)[C@H](CC(C)C)NC(=O)[C@@H](NC(=O)[C@H](Cc1c[nH]c2ccccc12)NC(=O)[C@@H]1CCCN1C(=O)[C@H](CCCCN)NC[C@@H](N)CCCN=C(N)N)C(C)(C)C (H-[X3]PW[Tle]L-OEt) ?
A: No

Q: In plain terms: is recorded pKi at least 8 for CC(C)C[C@H](NC(=O)[C@@H](NC(=O)[C@H](Cc1c[nH]c2ccccc12)NC(=O)[C@@H]1CCCN1C(=O)C(CCCNC(=N)N)CCCNC(=N)N)C(C)(C)C)C(=O)O (stereo partly drawn) (X6-PW[Tle]L-OH) ?
A: Yes
